Documented IC50 across a set of compounds
Target: Oxytocin receptor (Rattus norvegicus)
Sequence (P70536 whole entry): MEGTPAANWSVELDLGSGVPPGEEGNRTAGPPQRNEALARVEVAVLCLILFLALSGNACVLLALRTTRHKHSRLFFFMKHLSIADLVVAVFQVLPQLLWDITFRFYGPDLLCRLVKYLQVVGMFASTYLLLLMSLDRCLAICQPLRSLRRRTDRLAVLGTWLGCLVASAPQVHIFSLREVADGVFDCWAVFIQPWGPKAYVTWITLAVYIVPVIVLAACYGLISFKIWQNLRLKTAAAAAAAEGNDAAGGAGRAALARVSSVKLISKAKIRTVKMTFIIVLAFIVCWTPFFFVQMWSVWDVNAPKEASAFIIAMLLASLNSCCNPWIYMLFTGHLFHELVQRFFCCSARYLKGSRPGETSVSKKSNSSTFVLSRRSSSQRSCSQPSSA
Test Readout: IC50 (µM)

| Compound | Reported |
| --- | --- |
| CC1(C)[C@@H]2CC[C@@]1(CS(=O)(=O)N1CCC3(CCc4ccccc43)CC1)[C@@H](NC(=O)Cc1nnn[nH]1)C2 | 0.22 |
| CC1(C)[C@@H]2CC[C@@]1(CS(=O)(=O)N1CCC3(CCc4ccccc43)CC1)[C@@H](NC(=O)Cc1ccncc1)C2 | 0.12 |
| CC1(C)[C@@H]2CC[C@@]1(CS(=O)(=O)N1CCC3(CCc4ccccc43)CC1)[C@@H](N1C(=O)CN(CCCn3ccnc3)C1=O)C2 | 0.019 |
| CC1(C)[C@@H]2CC[C@@]1(CS(=O)(=O)N1CCC3(CCc4ccccc43)CC1)[C@@H](NC(=O)CC1CCCNC1)C2 (stereo partly drawn) | 0.13 |
| CC1(C)[C@@H]2CC[C@@]1(CS(=O)(=O)N1CCC3(CCc4ccccc43)CC1)[C@@H](NC(=O)C(N)CCC#N)C2 (stereo partly drawn) | 0.046 |
| CC1(C)[C@@H]2CC[C@@]1(CS(=O)(=O)N1CCC3(CCc4ccccc43)CC1)[C@@H](NC(=O)NC1CN3CCC1CC3)C2 (single isomer, unassigned; isomer B) | 0.037 |
| CN1CC(=O)N([C@H]2C[C@H]3CC[C@]2(CS(=O)(=O)N2CCC4(CCc5ccccc54)CC2)C3(C)C)C1=O | 0.014 |
| C[S+]([O-])CCC(N)C(=O)N[C@H]1C[C@H]2CC[C@]1(CS(=O)(=O)N1CCC3(CCc4ccccc43)CC1)C2(C)C (stereo partly drawn) | 0.054 |
| CCC(C)(C)C(=O)NCC[C@@]1(O)C[C@H]2CC[C@]1(CS(=O)(=O)N1CCC3(C=Cc4ccccc43)CC1)C2(C)C | 0.045 |
| CC1(C)[C@@H]2CC[C@@]1(CS(=O)(=O)N1CCC3(CCc4ccccc43)CC1)[C@@H](N1C(=O)CN(CC#N)C1=O)C2 | 0.0042 |
| CCOC(=O)CCC(=O)N[C@H]1C[C@H]2CC[C@]1(CS(=O)(=O)N1CCC3(CCc4ccccc43)CC1)C2(C)C | 0.24 |
| CC(C)[C@H](N)C(=O)NC[C@@]1(O)C[C@H]2CC[C@]1(CS(=O)(=O)N1CCC3(C=Cc4ccccc43)CC1)C2(C)C | 0.043 |
| CC1(C)[C@@H]2CC[C@@]1(CS(=O)(=O)N1CCC3(CCc4ccccc43)CC1)[C@@H](NC(=O)[C@H](N)CCS(C)(=O)=O)C2 | 0.045 |
